# system tested: acetylcholine receptor
# measurement description: SPR, AchR immobilized on CM5 chip, peptide at 10 uM
endpoint: Binding affinity (RU)

Study these solved cases before continuing.
binder	Binding affinity (RU)
RRTTNR [6mer-1-821]	22
KKIDKK [6mer-1-845]	23
KEHVR [5mer-1035]	19
RSFQKK [6mer-2-384]	142
RCWMK [5mer-1015]	30

a = KTEAK [5mer-744]
b = RQQRRR [6mer-2-398]
c = KDSNR [5mer-1008]
(Q) Rank entries according to their Binding affinity (RU), from the largest number down. Respond with an ordered listing of the labels, as requested.
(A) b, a, c
